Method: total protein half-life in vivo (active degradation + dilution); higher = more stable protein
Condition Context: wild type E. coli NCM3722; growth: N-lim chemostat; doubling time 12 h
Measurement Type: total protein half-life in vivo
Just so you know, I need the unit written after the number.

The sequence listed as MTLDLPRRFPWPTLLSVCIHGAVVAGLLYTSVHQVIELPAPAQPISVTMVTPADLEPPQAVQPPPEPVVEPEPEPEPIPEPPKEAPVVIEKPKPKPKPKPKPVKKVQEQPKRDVKPVESRPASPFENTAPARLTSSTATAATSKPVTSVASGPRALSRNQPQYPARAQALRIEGQVKVKFDVTPDGRVDNVQILSAKPANMFEREVKNAMRRWRYEPGKPGSGIVVNILFKINGTTEIQ has a reported total protein half-life in vivo of 3.29 h

The sequence listed as MNMKLKTLFAAAFAVVGFCSTASAVTYPLPTDGSRLVGQNQVITIPEGNTQPLEYFAAEYQMGLSNMMEANPGVDTFLPKGGTVLNIPQQLILPDTVHEGIVINSAEMRLYYYPKGTNTVIVLPIGIGQLGKDTPINWTTKVERKKAGPTWTPTAKMHAEYRAAGEPLPAVVPAGPDNPMGLYALYIGRLYAIHGTNANFGIGLRVSHGCVRLRNEDIKFLFEKVPVGTRVQFIDEPVKATTEPDGSRYIEVHNPLSTTEAQFEGQEIVPITLTKSVQTVTGQPDVDQVVLDEAIKNRSGMPVRLN [P0AAX8] has a reported total protein half-life in vivo of 13.7 h

---

Method: total protein half-life in vivo (active degradation + dilution); higher = more stable protein
Condition Context: E. coli NCM3722 delta-hslV; growth: N-lim chemostat; doubling time 6 h
Measurement Type: total protein half-life in vivo (h)
Answer in h, number only, no unit symbol.

The sequence listed as MKKIGVILSGCGVYDGSEIHEAVLTLLAISRSGAQAVCFAPDKQQVDVINHLTGEAMTETRNVLIEAARITRGEIRPLAQADAAELDALIVPGGFGAAKNLSNFASLGSECTVDRELKALAQAMHQAGKPLGFMCIAPAMLPKIFDFPLRLTIGTDIDTAEVLEEMGAEHVPCPVDDIVVDEDNKIVTTPAYMLAQNIAEAASGIDKLVSRVLVLAE [P0ABU5] has a reported total protein half-life in vivo of 4.76

The sequence listed as MCGRFAQSQTREDYLALLAEDIERDIPYDPEPIGRYNVAPGTKVLLLSERDEHLHLDPVFWGYAPGWWDKPPLINARVETAATSRMFKPLWQHGRAICFADGWFEWKKEGDKKQPFFIYRADGQPIFMAAIGSTPFERGDEAEGFLIVTAAADQGLVDIHDRRPLVLSPEAAREWMRQEISGKEASEIAASGCVPANQFSWHPVSRAVGNVKNQGAELIQPV has a reported total protein half-life in vivo of 4.54

---

Method: total protein half-life in vivo (active degradation + dilution); higher = more stable protein
Condition Context: E. coli NCM3722 delta-clpP delta-lon delta-hslV; growth: N-lim chemostat; doubling time 6 h
Measurement Type: total protein half-life in vivo (h)
Answer in h, number only, no unit symbol.

The sequence listed as MMSLAWPLFRVTEQAALAAWPQTGCGDKNKIDGLAVTAMRQALNDVAFRGRVVIGEGEIDHAPMLWIGEEVGKGDGPEVDIAVDPIEGTRMVAMGQSNALAVMAFAPRDSLLHAPDMYMKKLVVNRLAAGAIDLSLPLTDNLRNVAKALGKPLDKLRMVTLDKPRLSAAIEEATQLGVKVFALPDGDVAASVLTCWQDNPYDVMYTIGGAPEGVISACAVKALGGDMQAELIDFCQAKGDYTENRQIAEQERKRCKAMGVDVNRVYSLDELVRGNDILFSATGVTGGELVNGIQQTANGVRTQTLLIGGADQTCNIIDSLH has a reported total protein half-life in vivo of 3.96

The sequence listed as MKQYLIAPSILSADFARLGEDTAKALAAGADVVHFDVMDNHYVPNLTIGPMVLKSLRNYGITAPIDVHLMVKPVDRIVPDFAAAGASIITFHPEASEHVDRTLQLIKENGCKAGLVFNPATPLSYLDYVMDKLDVILLMSVNPGFGGQSFIPQTLDKLREVRRRIDESGFDIRLEVDGGVKVNNIGEIAAAGADMFVAGSAIFDQPDYKKVIDEMRSELAKVSHE [P0AG07] has a reported total protein half-life in vivo of 5.23

The sequence listed as MITYHDAFAKANHYLDDADLPVVITLHGRFSQGWYFCFEAREFLETGDEAARLAGNAPFIIDKDSGEIHSLGTAKPLEEYLQDYEIKKATFGLP has a reported total protein half-life in vivo of 4.62

---

Method: total protein half-life in vivo (active degradation + dilution); higher = more stable protein
Condition Context: wild type E. coli NCM3722; growth: C-lim chemostat; doubling time 3 h
I'd appreciate it if you could supply total protein half-life in vivo values for the items below.
Answer in h, number only, no unit symbol.

The sequence listed as MAEIGIFVGTMYGNSLLVAEEAEAILTAQGHKATVFEDPELSDWLPYQDKYVLVVTSTTGQGDLPDSIVPLFQGIKDSLGFQPNLRYGVIALGDSSYVNFCNGGKQFDALLQEQSAQRVGEMLLIDASENPEPETESNPWVEQWGTLLS has a reported total protein half-life in vivo of 3.57

The sequence listed as MKLTLKNLSMAIMMSTIVMGSSAMAADSNEKIVIAHRGASGYLPEHTLPAKAMAYAQGADYLEQDLVMTKDDNLVVLHDHYLDRVTDVADRFPDRARKDGRYYAIDFTLDEIKSLKFTEGFDIENGKKVQTYPGRFPMGKSDFRVHTFEEEIEFVQGLNHSTGKNIGIYPEIKAPWFHHQEGKDIAAKTLEVLKKYGYTGKDDKVYLQCFDADELKRIKNELEPKMGMELNLVQLIAYTDWNETQQKQPDGSWVNYNYDWMFKPGAMKQVAEYADGIGPDYHMLIEETSQPGNIKLTGMVQDAQQNKLVVHPYTVRSDKLPEYTPDVNQLYDALYNKAGVNGLFTDFPDKAVKFLNKE has a reported total protein half-life in vivo of 3.12

The sequence listed as MNSHNITNESLALALMLVVVAILISHKEKLALEKDILWSVGRAIIQLIIVGYVLKYIFSVDDASLTLLMVLFICFNAAWNAQKRSKYIAKAFISSFIAITVGAGITLAVLILSGSIEFIPMQVIPIAGMIAGNAMVAVGLCYNNLGQRVISEQQQIQEKLSLGATPKQASAILIRDSIRAALIPTVDSAKTVGLVSLPGMMSGLIFAGIDPVKAIKYQIMVTFMLLSTASLSTIIACYLTYRKFYNSRHQLVVTQLKKK has a reported total protein half-life in vivo of 3.19

The sequence listed as MDQAGIIRDLLIWLEGHLDQPLSLDNVAAKAGYSKWHLQRMFKDVTGHAIGAYIRARRLSKSAVALRLTARPILDIALQYRFDSQQTFTRAFKKQFAQTPALYRRSPEWSAFGIRPPLRLGEFTMPEHKFVTLEDTPLIGVTQSYSCSLEQISDFRHEMRYQFWHDFLGNAPTIPPVLYGLNETRPSQDKDDEQEVFYTTALAQDQADGYVLTGHPVMLQGGEYVMFTYEGLGTGVQEFILTVYGTCMPMLNLTRRKGQDIERYYPAEDAKAGDRPINLRCELLIPIRR [P0ACI0] has a reported total protein half-life in vivo of 2.92

The sequence listed as MKKLKLHGFNNLTKSLSFCIYDICYAKTAEERDGYIAYIDELYNANRLTEILSETCSIIGANILNIARQDYEPQGASVTILVSEEPVDPKLIDKTEHPGPLPETVVAHLDKSHICVHTYPESHPEGGLCTFRADIEVSTCGVISPLKALNYLIHQLESDIVTIDYRVRGFTRDINGMKHFIDHEINSIQNFMSDDMKALYDMVDVNVYQENIFHTKMLLKEFDLKHYMFHTKPEDLTDSERQEITAALWKEMREIYYGRNMPAV [P0A7F6] has a reported total protein half-life in vivo of 2.8

The sequence listed as MVDQAQDTLRPNNRLSDMQATMEQTQAFENRVLERLNAGKTVRSFLITAVELLTEAVNLLVLQVFRKDDYAVKYAVEPLLDGDGPLGDLSVRLKLIYGLGVINRQEYEDAELLMALREELNHDGNEYAFTDDEILGPFGELHCVAALPPPPQFEPADSSLYAMQIQRYQQAVRSTMVLSLTELISKISLKKAFQK [P0AF10] has a reported total protein half-life in vivo of 2.48

---

I'd appreciate it if you could supply total protein half-life in vivo values for the items below.
Method: total protein half-life in vivo (active degradation + dilution); higher = more stable protein
Condition Context: E. coli NCM3722 delta-clpP delta-lon delta-hslV; growth: N-lim chemostat; doubling time 6 h
Answer in h, number only, no unit symbol.

The sequence listed as MTMSLEVFEKLEAKVQQAIDTITLLQMEIEELKEKNNSLSQEVQNAQHQREELERENNHLKEQQNGWQERLQALLGRMEEV [P0AF36] has a reported total protein half-life in vivo of 7.42

The sequence listed as MGSINLRIDDELKARSYAALEKMGVTPSEALRLMLEYIADNERLPFKQTLLSDEDAELVEIVKERLRNPKPVRVTLDEL [P0C079] has a reported total protein half-life in vivo of 3.41

The sequence listed as MNTLTFLLSTVIELYTMVLLLRIWMQWAHCDFYNPFSQFVVKVTQPIIGPLRRVIPAMGPIDSASLLVAYILSFIKAIVLFKVVTFLPIIWIAGLLILLKTIGLLIFWVLLVMAIMSWVSQGRSPIEYVLIQLADPLLRPIRRLLPAMGGIDFSPMILVLLLYVINMGVAEVLQATGNMLLPGLWMAL has a reported total protein half-life in vivo of 6.46

The sequence listed as MQKLKQQVFEANMELPRYGLVTFTWGNVSAIDRERGLVVIKPSGVAYETMKAADMVVVDMSGKVVEGEYRPSSDTATHLELYRRYPSLGGIVHTHSTHATAWAQAGLAIPALGTTHADYFFGDIPCTRGLSEEEVQGEYELNTGKVIIETLGNAEPLHTPGIVVYQHGPFAWGKDAHDAVHNAVVMEEVAKMAWIARGINPQLNHIDSFLMNKHFMRKHGPNAYYGQK has a reported total protein half-life in vivo of 4.02

The sequence listed as MQFDWSAIWPAIPLLIEGAKMTLWISVLGLAGGLVIGLLAGFARTFGGWIANHVALVFIEVIRGTPIVVQVMFIYFALPMAFNDLRIDPFTAAVVTIMINSGAYIAEITRGAVLSIHKGFREAGLALGLSRWETIRYVILPLALRRMLPPLGNQWIISIKDTSLFIVIGVAELTRQGQEIIAGNFRALEIWSAVAVFYLIITLVLSFILRRLERRMKIL [P0AEQ6] has a reported total protein half-life in vivo of 7.5

The sequence listed as MSIEIANIKKSFGRTQVLNDISLDIPSGQMVALLGPSGSGKTTLLRIIAGLEHQTSGHIRFHGTDVSRLHARDRKVGFVFQHYALFRHMTVFDNIAFGLTVLPRRERPNAAAIKAKVTKLLEMVQLAHLADRYPAQLSGGQKQRVALARALAVEPQILLLDEPFGALDAQVRKELRRWLRQLHEELKFTSVFVTHDQEEATEVADRVVVMSQGNIEQADAPDQVWREPATRFVLEFMGEVNRLQGTIRGGQFHVGAHRWPLGYTPAYQGPVDLFLRPWEVDISRRTSLDSPLPVQVLEASPKGHYTQLVVQPLGWYNEPLTVVMHGDDAPQRGERLFVGLQHARLYNGDERIETRDEELALAQSA has a reported total protein half-life in vivo of 6.63

The sequence listed as MLNIVLYEPEIPPNTGNIIRLCANTGFRLHIIEPMGFAWDDKRLRRAGLDYHEFTAVTRHHDYRAFLEAENPQRLFALTTKGTPAHSAVSYQDGDYLMFGPETRGLPASILDALPAEQKIRIPMVPDSRSMNLSNAVSVVVYEAWRQLGYPGAVLRD [P0AGJ7] has a reported total protein half-life in vivo of 5.27
